Target: Ubiquitin carboxyl-terminal hydrolase 10 (Homo sapiens, UniProt Q14694)
Sequence (Q14694 whole entry): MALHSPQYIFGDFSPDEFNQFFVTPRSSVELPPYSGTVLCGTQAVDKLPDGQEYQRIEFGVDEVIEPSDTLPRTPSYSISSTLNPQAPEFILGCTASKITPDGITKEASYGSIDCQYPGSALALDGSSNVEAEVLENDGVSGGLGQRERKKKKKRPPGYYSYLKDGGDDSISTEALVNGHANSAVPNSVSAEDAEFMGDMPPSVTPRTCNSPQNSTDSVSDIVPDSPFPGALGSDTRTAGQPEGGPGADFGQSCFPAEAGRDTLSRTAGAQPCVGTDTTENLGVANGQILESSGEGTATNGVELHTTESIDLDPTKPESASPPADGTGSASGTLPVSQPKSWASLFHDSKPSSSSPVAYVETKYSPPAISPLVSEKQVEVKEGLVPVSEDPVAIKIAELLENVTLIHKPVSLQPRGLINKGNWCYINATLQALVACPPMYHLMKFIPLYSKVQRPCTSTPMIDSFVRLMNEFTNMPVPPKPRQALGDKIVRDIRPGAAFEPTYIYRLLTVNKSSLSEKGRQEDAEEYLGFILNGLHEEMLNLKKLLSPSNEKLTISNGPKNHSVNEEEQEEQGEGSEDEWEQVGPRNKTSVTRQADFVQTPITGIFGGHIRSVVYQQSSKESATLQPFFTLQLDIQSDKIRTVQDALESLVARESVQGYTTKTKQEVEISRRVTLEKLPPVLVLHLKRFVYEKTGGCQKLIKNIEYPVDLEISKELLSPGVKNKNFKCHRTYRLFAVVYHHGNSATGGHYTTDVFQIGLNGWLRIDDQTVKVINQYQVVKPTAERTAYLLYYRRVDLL
Experiment: Inhibition of human recombinant his tagged USP10 assessed as deubiquitinase activity
assay_endpoint: IC50 (µM)
Field format: number, assumed µM, no unit text.

Fill in IC50 for record CCOC(=O)c1cc([N+](=O)[O-])c(Oc2ccc(C(=O)OC)cc2)s1
8.3

====

Target: Ubiquitin carboxyl-terminal hydrolase 10 (Homo sapiens, UniProt Q14694)
Assay: Inhibition of human USP10 deubiquitinase activity using Ubiquitin 7-amino-4-carbamoylmethylcoumarin as substrate preincubated for 30 mins followed by substrate addition and measured after 30 mins by fluorometric assay
assay_endpoint: pIC50
Scale note: pIC50 = -log10(concentration in M).

Worked examples, 3 molecules total:
Report value only: pIC50, Ubiquitin carboxyl-terminal hydrolase 10 (Homo sapiens, UniProt Q14694), Cc1ccc2c(=O)c(-c3nc(-c4ccccc4C)no3)cn(CC(=O)Nc3c(F)cccc3F)c2n1
4.95

Report value only: pIC50, Ubiquitin carboxyl-terminal hydrolase 10 (Homo sapiens, UniProt Q14694), COc1ccc2c(=O)c(-c3nc(-c4ccccc4C)no3)cn(CC(=O)NCCc3ccc(Cl)cc3)c2c1
5.10

Report value only: pIC50, Ubiquitin carboxyl-terminal hydrolase 10 (Homo sapiens, UniProt Q14694), Cc1ccccc1NC(=O)c1cn(CC(=O)NCCc2ccc(Cl)cc2)c2cc(N3CCCCC3)ccc2c1=O
4.97

New cases:
Report value only: pIC50, Ubiquitin carboxyl-terminal hydrolase 10 (Homo sapiens, UniProt Q14694), Cc1ccc2c(=O)c(C(=O)N[C@@H](C)c3ccccc3)cn(CC(=O)N3CCN(c4ccc(Cl)cc4)CC3)c2c1
4.96
